test system: EpiSC-derived OPCs; test: In vitro phenotypic screening of OPCs, MBP high-content imaging; type: cell-based, mouse; conditions: Mus musculus, 72 h, percentage of MBP+ oligodendrocytes; 3 days; 0.5 nM to 1000 nM; read-out: mOPC EC50
pEC50: −log10 of the molar value.
Readout name: pEC50

Examples with answers:
>>> print(df.to_string())
                                   compound      assayed_target  experimental_value
0  O=S1(=O)CC2(CCN(CCOc3cnc(C(F)(F)F)c(Cl)c3)CC2)C1  EpiSC-derived OPCs                7.79
1  O=S1(=O)CC2(CCN(CCOc3ccc(Cl)c(F)c3)CC2)C1  EpiSC-derived OPCs                8.49
2  CC(C)(Cc1ccc(C(F)(F)F)cn1)CN1CCC2(C1)CS(=O)(=O)C2  EpiSC-derived OPCs                7.60

A = O=S1(=O)CC2(CCN(CCOc3cnc([C@H]4CCC[C@@H](C(F)(F)F)C4)nc3)CC2)C1 (relative stereo) [Compound 248B]
B = CC(Cc1ccc(C2CCC2)cc1)CN1CCC2(C1)CS(=O)(=O)C2 (racemic) [Compound 109A]
C = CCC(C)(C)c1ccc(CC(C)CN2CCC3(CC2)CS(=O)(=O)C3)cc1 (racemic)
D = O=S1(=O)CC2(CCN(CC3(Cc4ccc(C(F)(F)F)nc4)CC3)C2)C1
E = C[C@@H](Cc1ccc(OC(F)(F)F)cc1)CN1CCC2(C1)CS(=O)(=O)C2 (single isomer, unassigned) [119A*]
Task: Sort entries by pEC50 from minimum to maximum value. Output spec: labels arranged per the requested ranking.
Result: A, C, D, B, E

* * *

target: human emopamil binding protein and human 7-dehydrocholesterol reductase co-expressing cell membrane (Homo sapiens (Human)); test: hEBP-DHCR7 radioligand filtration binding assay with [3H]-Compound 118A*; settings: radioligand [3H]-Compound 118A*; HEK293 membrane co-expressing hEBP and DHCR7
Sequence (Q15125 whole entry): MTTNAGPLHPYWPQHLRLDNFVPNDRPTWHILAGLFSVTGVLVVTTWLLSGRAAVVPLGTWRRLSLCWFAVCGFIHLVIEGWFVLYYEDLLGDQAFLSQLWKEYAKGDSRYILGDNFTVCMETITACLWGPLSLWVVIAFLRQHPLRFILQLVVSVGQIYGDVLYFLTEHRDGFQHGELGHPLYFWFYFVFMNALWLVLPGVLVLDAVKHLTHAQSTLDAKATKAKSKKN
Readout name: Ki (nM)

// solved cases for Ki follow
                                   molecule  experimental_value
0  C[C@H](Cc1ccc([C@H]2CC[C@](C)(O)CC2)c(Cl)c1)CN1CCC2(C1)CS(=O)(=O)C2 (mixture of isomers) [Compound 123A]                11.9
1  C[C@@H](Cc1cnc(C(F)(F)F)nc1)CN1CCC2(CC1)CS(=O)(=O)C2 (single isomer, unassigned) [215A*]                 105
2  C[C@H](Cc1ccnc(C(F)(F)F)c1)CN1CCC2(C1)CS(=O)(=O)C2 (single isomer, unassigned) [Compound 126B]                67.6

I = O=S1(=O)CC2(CCN(CCOc3ccc(-c4ccc(C(F)(F)F)nc4)nc3)CC2)C1 [Compound 241]
II = O=S1(=O)CC2(CCN(CCOc3ccc(C(F)(F)F)nc3)CC2)C1 [Compound 230]
III = C[C@H](Cc1ccc(C(F)(F)F)nc1)CN1CCC2(CC1)CS(=O)(=O)C2 (single isomer, unassigned) [Compound 217]
IV = O=S1(=O)CC2(CCN(CCOc3ccc(F)c(F)c3)CC2)C1 [Example 158]
Task: Put the items in sequence by Ki, from largest down. Please write the labels in the order that was asked for.
Result: II, I, III, IV

Origin of the recorded values: patent US20240400579A1
